Test system: MS2 coat protein
METHOD: apparent KD of MS2 coat protein; designed switch direction (-1 OFF switch, 1 ON switch): 1; higher = weaker reporter binding
PROTOCOL CONDITIONS: input ligand: FMN 200 uM
MEASURE: apparent KD of MS2 coat protein

Use the examples below as a reference point.
>>> result("ACUUGCGGCACAGGAUAUGGGUGCCUGUACAUGAGGAUCACCCAUGUUAAGGGACGGAUUACGAACCAGAAGGGUGAGGCGGGC [Aqube] (Eterna round: R96, puzzle: Same State NG 2)")
"1350 nM"
>>> result("UGAACCUUCACAGGAUAUCAUGCGAAAAUUGCGUGAGAAGGGUGGAUGUGGUGUUCAAAGAUGCACAUGAGGAUCACCCAUGUA [SameState NG1 #48] (Eterna round: R96, puzzle: Same State NG 1)")
"106 nM"
>>> result("GUUACAUGAGGAUCACCCAUGUAUGUGUGGGAGUAAGUGUCUUAGGAUAUCUAUGAUUUAAUUUCAGAGAAGGAAGAUUGUUGU [JMF's solution 88] (Eterna round: R96, puzzle: Same State NG 3)")
"119 nM"
>>> result("AAAAUCUACGAAAGUAGAACAAGCUUAAGACAUGAGGAUCACCCAUGUCAUGUCUUAAAACAUGAGGAAACUCAUGA [hsa-mir-208a sensor: 17] (Eterna round: R96, puzzle: Sensor for hsa-mir-208a)")
"273 nM"
>>> result("CGGCGCUGUCGAGAGGAUAUGCGGUGAUGGACAUGAGGAUCACCCAUGUUAGCGAUAGCAUCACGGUAGAAGGCUCUUACGCCUG [Soteed Omei mod 23] (Eterna round: R96, puzzle: Same State 2)")
"217 nM"
>>> result("GUUACAUGAGGAUCACCCAUGUAUGUGUGGGAGUAAGUGUCUUAGGAUAUCUAUGAGUUAAUUUAAGAGAAGGAAGAUUGUUGU [JMF's solution 74] (Eterna round: R96, puzzle: Same State NG 3)")
"97.2 nM"
>>> result("AGGCUGAGUCGAGGAUAUGAUCUUCAUAUAAUAACAUGAGGAUCACCCAUGUAUAAUUACAUGGAUCAGAAGGCGACUCAGCCA [SSNG2/13-B1] (Eterna round: R96, puzzle: Same State NG 2)")
"35.4 nM"
>>> result("GAGGGACAGACCAACAUGAGGAUCACCCAUGUCCUCGCAGGUCAGGAUAUUAUGAGGAUCACCCGUGAGAAGGGACGGUGAAUU (Eterna round: R96, puzzle: Same State NG 3)")
"709 nM"

Which apparent KD of MS2 coat protein is reported for this sequence? GGUGGGUUGCUGCCGGCACAUGAGGAUCACCCAUGUUUUGGGAAGGAUAUGGUACCUAUUUGGUACCAGAAGGUCCCGUUGGUG [salish99_SSNG3_r04_709] (Eterna round: R96, puzzle: Same State NG 3)
978 nM

Proceed to ACUCUACAUGAGGAUCACCCAUGUUGAGCCCAUCAAGGAUAUGGGUCUUAAUCGCGGGUGCCAGAAGGUGAUGGUU [Xesove] (Eterna round: R96, puzzle: Same State 1)
313 nM

Proceed to UGGUACAUGGGAGGAUAUCUCAUGGUGACAUGAGGAUCACCCAUGUAGUUGGAGCCGAAAGGCAGAGAGAAGGCCCAUGUACCU [JL SSNG1 3.77] (Eterna round: R96, puzzle: Same State NG 2)
69.2 nM

Proceed to AAUAUAUUAAGUGAGGAUAUCGAGGAAAAAACAUGAGGAUCACCCAUGUGGGUAAAAAAAAAAAGUGAGAAGGUGCUUAAUAUAU [Samwise Clockwise 10 - Jieux - Same State 2] (Eterna round: R96, puzzle: Same State 2)
34.9 nM
